This collection of values is drawn from ChEMBL document CHEMBL1152355.

Molecular target: UniProt:P51639
Sequence (P51639 whole entry): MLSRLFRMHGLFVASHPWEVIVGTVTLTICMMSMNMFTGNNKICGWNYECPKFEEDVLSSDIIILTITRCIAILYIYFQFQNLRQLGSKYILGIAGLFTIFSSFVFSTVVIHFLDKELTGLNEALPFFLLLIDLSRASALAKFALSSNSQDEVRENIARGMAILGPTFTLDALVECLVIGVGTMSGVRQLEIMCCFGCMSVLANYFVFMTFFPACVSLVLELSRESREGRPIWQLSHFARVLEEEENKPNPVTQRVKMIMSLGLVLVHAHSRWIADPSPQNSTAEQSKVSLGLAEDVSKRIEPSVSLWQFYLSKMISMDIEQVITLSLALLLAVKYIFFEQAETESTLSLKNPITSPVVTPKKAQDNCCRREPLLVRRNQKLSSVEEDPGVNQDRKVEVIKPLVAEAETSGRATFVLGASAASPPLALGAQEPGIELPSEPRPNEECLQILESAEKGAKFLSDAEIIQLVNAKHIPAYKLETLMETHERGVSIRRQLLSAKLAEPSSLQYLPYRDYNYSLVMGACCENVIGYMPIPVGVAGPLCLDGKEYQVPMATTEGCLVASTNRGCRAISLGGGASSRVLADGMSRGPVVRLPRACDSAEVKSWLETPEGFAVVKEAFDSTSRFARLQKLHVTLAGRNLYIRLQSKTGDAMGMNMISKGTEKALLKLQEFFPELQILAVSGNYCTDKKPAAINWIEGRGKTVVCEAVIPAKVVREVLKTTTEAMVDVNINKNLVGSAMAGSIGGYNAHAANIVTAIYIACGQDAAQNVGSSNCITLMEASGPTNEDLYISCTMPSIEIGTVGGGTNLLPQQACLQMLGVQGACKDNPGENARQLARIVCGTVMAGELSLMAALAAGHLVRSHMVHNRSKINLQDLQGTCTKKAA
Test: Inhibition of rat HMG-CoA reductase using 3.7 MBq DL-[3-14C]HMG-CoA
measured_parameter: pIC50
Answers are plain numbers, as −log10 of the molar value.

pIC50 for CCC(CC)(c1cccc(F)c1)c1ccc(/C=C/[C@@H](O)C[C@@H](O)CC(=O)O)c(C(C)C)c1 ?
4.04

###

target: 3-hydroxy-3-methylglutaryl-coenzyme A reductase (Rattus norvegicus, UniProt P51639); experiment: Inhibition of rat HMG-CoA reductase using 0.37 MBq DL-[3-14C]HMG-CoA
Give measured pIC50 for each item. Keep answers brief.
Give bare numbers, as −log10 of the molar value.

CCC(CC)(c1ccccc1)c1ccc(/C=C/[C@@H](O)C[C@@H](O)CC(=O)O)c(C(C)C)c1
5.74
CCC(CC)(c1ccccc1)c1ccc(/C=C/[C@@H](O)C[C@@H](O)CC(=O)O)c(-c2ccc(F)cc2)c1
6.82

Okay, now this compound:
Returns the measured pIC50 for the input compound. Input: CC[C@H](C)C(=O)O[C@H]1CCC=C2C=C[C@H](C)[C@H](CC[C@@H]3C[C@@H](O)CC(=O)O3)[C@H]21
7.40
